test: protein stability index of a GFP-peptide fusion (yeast GPS) (PSI 1-4); higher = more stable; sorted into four equal gates, so the index is relative within each strain; details: san1∆
Listed here are sequences together with their documented protein stability index.

{"columns": ["chain sequence", "protein stability index"],
 "data": [
  ["VIVPLSTLSNWSSEFAK [SNF2]", 2.52],
  ["SPMLYKVPDISSDGQLK [BRR2]", 2.61],
  ["IQVLTEASSLGYLDDSE [IRR1]", 1.76],
  ["YLESLFAKQVDVQLERV [IRR1]", 2.36],
  ["NLFSSTGFKGLLIELQA [SRB2]", 2.92],
  ["NFNSSLHKRQQFSESTH [YJL039C/NUP192]", 2.82],
  ["QGMEGTVDLALFGSPPF [YMR129W/POM152]", 3.35],
  ["NANTIETAKMIENMTKE [FAS2]", 2.97],
  ["SLLLSSSFKEDCLSFAP [SSN2]", 2.76],
  ["ETSSFGSMFSGDNTSDV [RRI1]", 3.25],
  ["KLLKEKVKLFHGILDDL [MED2]", 3.09],
  ["KIFVETKFSKLIGRPPL [FAS1]", 2.35],
  ["EAMLRENIEVILSNGRM [SNF12]", 2.86],
  ["NLPKDKSGIPEFTPADP [SSN2]", 3.03]
]}
